Recorded values, source paper PMC12748989.

System: MDA-MB-231 cells
observation-type: Average (percentage cell inhibition), Dmastoparan MDA-MB231 12.5uM
Note: a bare number is incomplete; add the unit.

CC[C@H](C)[C@H](N)C(=O)N[C@@H](CC(N)=O)C(=O)N[C@@H](CC(C)C)C(=O)N[C@@H](CCCCN)C(=O)N[C@@H](CCCNC(=N)N)C(=O)N[C@@H](CC(C)C)C(=O)N[C@@H](C)C(=O)N[C@@H](C)C(=O)N[C@@H](CC(C)C)C(=O)N[C@@H](C)C(=O)N[C@@H](CCCCN)C(=O)N[C@@H](CCCCN)C(=O)N[C@H](C(=O)N[C@@H](CC(C)C)C(N)=O)[C@@H](C)CC
27.1833%
CC[C@H](C)[C@H](N)C(=O)N[C@@H](CC(N)=O)C(=O)N[C@@H](CC(C)C)C(=O)N[C@@H](CCCCN)C(=O)N[C@@H](C)C(=O)N[C@@H](CC(C)C)C(=O)N[C@@H](CCCNC(=N)N)C(=O)N[C@@H](C)C(=O)N[C@@H](CC(C)C)C(=O)N[C@@H](C)C(=O)N[C@@H](CCCCN)C(=O)N[C@@H](CCCCN)C(=O)N[C@H](C(=O)N[C@@H](CC(C)C)C(N)=O)[C@@H](C)CC
35.9182%

Please give the documented Average (percentage cell inhibition), Dmastoparan MDA-MB231 12.5uM of "CC[C@H](C)[C@H](NC(=O)[C@H](CCCCN)NC(=O)[C@H](CCCCN)NC(=O)[C@H](C)NC(=O)[C@H](CC(C)C)NC(=O)[C@H](C)NC(=O)[C@H](C)NC(=O)[C@H](CC(C)C)NC(=O)[C@H](C)NC(=O)[C@H](CCCCN)NC(=O)[C@H](CC(C)C)NC(=O)[C@H](CC(N)=O)NC(=O)[C@@H](N)CO)C(=O)N[C@@H](CC(C)C)C(N)=O" 31.5771%

Please give the documented Average (percentage cell inhibition), Dmastoparan MDA-MB231 12.5uM of "CC[C@H](C)[C@H](N)C(=O)N[C@@H](CC(N)=O)C(=O)N[C@@H](CC(C)C)C(=O)N[C@@H](CCCCN)C(=O)N[C@@H](C)C(=O)N[C@@H](CC(C)C)C(=O)N[C@@H](C)C(=O)N[C@@H](C)C(=O)N[C@@H](CC(N)=O)C(=O)N[C@@H](C)C(=O)N[C@@H](CCCCN)C(=O)N[C@@H](CCCCN)C(=O)N[C@H](C(=O)N[C@@H](CC(C)C)C(N)=O)[C@@H](C)CC" 3.242%

Please give the documented Average (percentage cell inhibition), Dmastoparan MDA-MB231 12.5uM of "CC[C@H](C)[C@H](N)C(=O)N[C@@H](CC(N)=O)C(=O)N[C@@H](CC(C)C)C(=O)N[C@@H](CCCCN)C(=O)N[C@@H](C)C(=O)N[C@@H](CCCNC(=N)N)C(=O)N[C@@H](C)C(=O)N[C@@H](C)C(=O)N[C@@H](CC(C)C)C(=O)N[C@@H](C)C(=O)N[C@@H](CCCCN)C(=O)N[C@@H](CCCCN)C(=O)N[C@H](C(=O)N[C@@H](CC(C)C)C(N)=O)[C@@H](C)CC" 11.7131%

Please give the documented Average (percentage cell inhibition), Dmastoparan MDA-MB231 12.5uM of "CC[C@H](C)[C@H](N)C(=O)N[C@@H](CC(N)=O)C(=O)N[C@@H](CC(C)C)C(=O)N[C@@H](CCCCN)C(=O)N[C@@H](C)C(=O)N[C@@H](CC(C)C)C(=O)N[C@@H](C)C(=O)N[C@@H](C)C(=O)N[C@@H](CC(C)C)C(=O)N[C@@H](C)C(=O)N[C@@H](CCCCN)C(=O)N[C@@H](CCCCN)C(=O)N[C@H](C(=O)N[C@@H](C)C(N)=O)[C@@H](C)CC" 12.3553%

Please give the documented Average (percentage cell inhibition), Dmastoparan MDA-MB231 12.5uM of "CC[C@H](C)[C@H](N)C(=O)N[C@@H](CC(N)=O)C(=O)N[C@@H](CCCNC(=N)N)C(=O)N[C@@H](CCCCN)C(=O)N[C@@H](C)C(=O)N[C@@H](CC(C)C)C(=O)N[C@@H](C)C(=O)N[C@@H](C)C(=O)N[C@@H](CC(C)C)C(=O)N[C@@H](C)C(=O)N[C@@H](CCCCN)C(=O)N[C@@H](CCCCN)C(=O)N[C@H](C(=O)N[C@@H](CC(C)C)C(N)=O)[C@@H](C)CC" 24.609%
